B1: Activity-dependent neuroprotector homeobox protein, residues 770 to 810; numbered along this chain, Q9H2P0 (parent)
chain: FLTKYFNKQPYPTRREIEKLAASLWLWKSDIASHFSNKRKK

# Variants of: B1
# assay procedure: abundance fitness (aPCA) (normalised: wild type 0, dead -1); higher = more abundant; growth selection in yeast, the domain comes from the species named
# measurement parameters: Homo sapiens
measured attribute: abundance fitness

{"seq string": "FLTKYFNKQPYPTRREIEKLAASLWLWKSDIASHFSNNRKK [K38N]", "measured attribute": "abundance fitness", "test value": -0.298}
{"seq string": "FLTKYFNKQPYPTRREPEKLAASLWLWKSDIASHFSNKRKK [I17P]", "measured attribute": "abundance fitness", "test value": -0.296}
{"seq string": "FLTKYFNKQPYPTRREIEKLPASLWLWKSDIASHFSNKRKK [A21P]", "measured attribute": "abundance fitness", "test value": -0.3}
{"seq string": "FLTKYFNKQPYPTRREIEKLAASLWLNKSDIASHFSNKRKK [W27N]", "measured attribute": "abundance fitness", "test value": -0.295}
